Recorded values, source ChEMBL document CHEMBL1125713.

- Test system: Canis familiaris
- protocol summary: Antiarrhythmic effect in coronary artery ligated dogs model at a dose of 5 mg/kg, value noted at end dose.
- Assay type: functional, Canis lupus familiaris, Heart
Could you label it yes (1) if measured Normal beats is 90% or higher, and no (0) otherwise?

> print(dat)
                                   compound  class.assignment
1  CC1CCCC(C)N1CCCC(C(N)=O)(c1ccccc1)c1ccccn1 (stereo unspecified)           yes (1)
2  CC1CCCC(C)N1CC(O)(c1ccccc1)c1ccccc1 (stereo unspecified)            no (0)
3  CC1CCC(C)N1CCCC(O)(c1ccccc1)c1ccccc1.Cl (stereo unspecified)            no (0)
4  Cl.OC(CCCN1CCCCC1)(c1ccccc1)c1ccccn1 (stereo unspecified)           yes (1)
5  CC1CCCC(C)N1CCC(C(N)=O)(c1ccccc1)c1ccccc1.Cl (stereo unspecified)            no (0)
6  CC1CCCC(C)N1CCCC(C#N)(c1ccccc1)c1ccccn1 (stereo unspecified)           yes (1)
7  CCC1CCCCN1CCCC(O)(c1ccccc1)c1ccccc1.Cl (stereo unspecified)            no (0)
8  CC1CCCC(C)N1CCCC(O)(c1ccccc1)c1cccnc1.Cl (stereo unspecified)            no (0)

###

- Species: Canis familiaris
- protocol summary: Compound was evaluated for the duration of sustained effect
- Assay type: functional, Canis lupus familiaris
parameter: Duration

> print(dat)
                                   compound  endpoint.result
1  CC1CCC(C)N1CCCC(O)(c1ccccc1)c1ccccc1.Cl (centres undefined)             >2 h
2  Cc1ccccc1C(O)(CCCN1C(C)CCCC1C)c1ccccc1.Cl (centres undefined)             >2 h
3  CC(=O)NCC(CCN1C(C)CCCC1C)(c1ccccc1)c1ccccc1 (centres undefined)           <0.5 h
4  CC1CCCC(C)N1CCCC(c1ccccc1)c1ccccc1.Cl (centres undefined)             >2 h
5  CC1CCCC(C)N1CCCC(C#N)(c1ccccc1)c1ccccn1 (centres undefined)           <0.5 h
6  Cl.OC(CCCN1CCCCC1)(c1ccccc1)c1ccccc1 [DIPHENIDOL HYDROCHLORIDE]             >2 h
7  CC1CCCC(C)N1CCCC(C(N)=O)(c1ccccc1)c1ccccc1.Cl (centres undefined)             >2 h
8  CC1CCCC(C)N1CCCC(O)(c1ccccc1)c1ccccn1.Cl (centres undefined) [PIRMENOL HYDROCHLORIDE]             >2 h
9  CC1CCCC(C)N1CCCC(C#N)(c1ccccc1)c1ccccc1.Cl (centres undefined)             >2 h

###

- Tested on: Canis familiaris
- protocol summary: Antiarrhythmic effect in coronary artery ligated dogs model at a dose of 5 mg/kg, administered intravenously and value noted at 20 min
- Assay type: functional, Canis lupus familiaris, Heart
- condition notes: route intravenous
Below is a list of entries, each paired with its recorded Normal beats value.
parameter: Normal beats (%)

> print(dat)
                                    molecule     parameter  endpoint.result
 1  CC1CCCC(C)N1CCC(C(N)=O)(c1ccccc1)c1ccccc1.Cl (configuration not stated)  Normal beats               51
 2  CC1CCCC(C)N1CCCC(O)(c1ccccc1)c1ccccc1.Cl (configuration not stated)  Normal beats               86
 3  CC1CCCC(C)N1CCCC(O)(c1ccccc1)c1ccccn1.Cl (configuration not stated) [PIRMENOL HYDROCHLORIDE]  Normal beats               80
 4  Cl.OC(CCCN1CCCCC1)(c1ccccc1)c1ccccn1 (configuration not stated)  Normal beats               21
 5  CC(=O)NCC(CCN1C(C)CCCC1C)(c1ccccc1)c1ccccc1 (configuration not stated)  Normal beats               62
 6  CC1CCC(C)N1CCCC(O)(c1ccccc1)c1ccccc1.Cl (configuration not stated)  Normal beats               39
 7  CCC1CCCCN1CCCC(O)(c1ccccc1)c1ccccc1.Cl (configuration not stated)  Normal beats               48
 8  CC1CCCC(C)N1CCC(C#N)(c1ccccc1)c1ccccc1.Cl (configuration not stated)  Normal beats               72
 9  CC1CCCC(C)N1CCCC(C#N)(c1ccccc1)c1ccccc1.Cl (configuration not stated)  Normal beats               88
10  CC1CCCC(C)N1CCC(O)(c1ccccc1)c1ccccc1.Cl (configuration not stated)  Normal beats               96
11  Cl.OC(CCCN1CCCCC1)(c1ccccc1)c1ccccc1 [DIPHENIDOL HYDROCHLORIDE]  Normal beats               54
12  CC1CCCC(C)N1CCCC(c1ccccc1)c1ccccn1.Cl (configuration not stated)  Normal beats               37
13  CC(C)N(CCC(C(N)=O)(c1ccccc1)c1ccccn1)C(C)C (configuration not stated) [DISOPYRAMIDE]  Normal beats               60
14  CC1CCCC(C)N1CCCC(C#N)(c1ccccc1)c1ccccn1 (configuration not stated)  Normal beats               50
15  CC1CCCC(C)N1CCCC(O)(c1ccccn1)c1ccccn1.Cl (configuration not stated)  Normal beats               68
16  CC1CCCC(C)N1CCCC(c1ccccc1)c1ccccc1.Cl (configuration not stated)  Normal beats               97
17  CC1CCCC(C)N1CCCC(O)c1ccccc1.Cl (configuration not stated)  Normal beats               45
